All figures here come from patent US9340577B2.

# TARGET_DESC: A2.1 HLA molecules (Homo sapiens, UniProt P04439, D140Y/D185E/D98H/E176V/E277Q/G131W/G231S/I119V/I121R/I166T/I218V/L300P/L318F/N151K/N90K/P208A/P217A/Q86G/Q94H/R138H/R169H/T345S)
# Format: binding
# Parameters: scale not given here
QUANTITY_NAME: A2
Give a plain numeric answer without units written out.

For orientation, consider the following solved cases.
PRIMARY_SEQUENCE | DATA_VALUE
YLLPRRGPRL | 0.0730
LLALLSCLTI | 0.0340
LLWKGEGAVV | 0.0360
FLWGPRALA | 0.0420
IIGAETFYV | 0.0260

The sequence listed as KMVELVHFLL has a reported A2 of 0.2200

Entry LVLGTLEEV ; A2 = 0.0320

----------
# TARGET_DESC: HLA-A*0201 (HLA-A2.1) (Homo sapiens, UniProt P04439, D140Y/D185E/D98H/E176V/E277Q/G131W/G231S/I119V/I121R/I166T/I218V/L300P/L318F/N151K/N90K/P208A/P217A/Q86G/Q94H/R138H/R169H/T345S)
# METHOD: biochemical
# Type: binding
No end group written: not given here.
Catalogue of sequences with associated IC50

In the examples that follow, each entry is paired with its recorded IC50.
PRIMARY_SEQUENCE | DATA_VALUE
PQYSWRINGV [Peptide 9013.0235] | > 20 µM
ITVNNSGSYV [Peptide 9013.0187] | > 20 µM
PLYSWRINGI [Peptide 9013.0236] | > 20 µM
EVQNTTYLWWV [Peptide 9013.0326] | > 20 µM
TLNNSGSYT [Peptide 9013.0065] | > 20 µM
ILNIIQNDT [Peptide 9013.0033] | > 20 µM

# next sequence below
Sure, the documented IC50 for ALAFTCEPET [Peptide 9013.0156] is > 20 µM

----------
# TARGET_DESC: A31 (A*3101) (Homo sapiens, UniProt P04439, A270S/D185E/E176V/E277Q/F33T/G231S/G80R/H175R/I121M/I218V/I322F/K168Q/L300P/L318F/M331R/P217A/Q94H/R138Q/T323A/T345S/T97I/V358M)
# METHOD: biochemical
# Format: binding
No end group written: not given here.
QUANTITY_NAME: IC50 (nM)
# unit: nM | format: bare number

PRIMARY_SEQUENCE | QUANTITY_NAME | DATA_VALUE
KTLLQQYCLY [Peptide 88.0130] | IC50 | 2920
STTETADPK [Peptide 88.0441] | IC50 | 3580
AFADLTVVYR [Peptide 78.0058] | IC50 | 140
CTYSPALNR [Peptide 1556.42] | IC50 | 17
TVSATQLVK [Peptide 1589.08] | IC50 | 14600
QQMFLGTVK [Peptide 88.0415] | IC50 | 7170
ALTALITPKK [Peptide 9017.0230] | IC50 | 7410
LTALIKPKK [Peptide 9017.0100] | IC50 | 2480
NTKATLLYK [Peptide 88.0385] | IC50 | 3820
FTDLTIVYR [Peptide 78.0313] | IC50 | 602

Then this sequence:
The sequence listed as TILWKDIFHR [Peptide 9012.0223] shows IC50 equal to 33
